Just for reference, patent US6525059B1 is where these values come from.

SUBJECT_OF_TEST: human GST-p38 kinase alpha (Homo sapiens, UniProt Q16539)
Construct: The coding region of the human p38a cDNA was obtained by PCR-amplification from RNA isolated from the human monocyte cell line THP.1; made in house; host or cells: E. coli DH10B
PROCEDURE_SUMMARY: p38 kinase in vitro assay, second format, phosphorylation of EGFRP with 33P-ATP
Format: biochemical
CONDITION: p38α in vitro, EGFRP assay procedure; read-out: p38^2 IC50
EXPERIMENTAL_READOUT: IC50 (nM)

{"columns": ["COMPOUND", "COMPARISON_OPERATOR", "MEASUREMENT"],
 "data": [
  ["Fc1ccc(-c2n[nH]cc2-c2ccnc(-c3c[nH]nc3-c3ccc(F)cc3)c2)cc1 [Example A-265]", "<", 100],
  ["Fc1ccc(-c2nn(CCN3CCOCC3)cc2-c2ccncc2)cc1 [Example A-216]", "=", 18],
  ["Clc1ccc(-c2n[nH]cc2-c2ccnc(NCc3ccccn3)c2)cc1 [Example A-247]", "<", 10],
  ["Cn1cc(-c2ccnc(F)c2)c(-c2ccc(F)c(F)c2)n1 [Example A-260]", "=", 230],
  ["Cn1cc(-c2ccncc2)c(-c2ccc3c(c2)OCO3)n1 [Example A-231]", "=", 174],
  ["Cn1cc(-c2ccncc2)c(-c2ccc(F)cc2)n1 [Example A-212]", "=", 740],
  ["Fc1ccc(-c2n[nH]cc2-c2ccncc2)cc1F [Example A-239]", "=", 34],
  ["Cn1cc(-c2ccncc2)c(-c2cccc(C(F)(F)F)c2)n1 [Example A-238]", "=", 177],
  ["c1cc(-c2c[nH]nc2-c2ccc3c(c2)OCO3)ccn1 [Example A-228]", "=", 339],
  ["Fc1ccc(-c2n[nH]cc2-c2ccnc(NC3CCN(Cc4ccccc4)CC3)c2)cc1 [Example A-263]", "<", 100],
  ["CN(C)CCn1cc(-c2ccnc(F)c2)c(-c2ccc(F)cc2)n1 [Example A-271]", "=", 216],
  ["Cn1cc(-c2ccncc2)c(-c2ccc(C(F)(F)F)cc2)n1 [Example A-252]", "=", 774],
  ["Fc1ccc(-c2n[nH]cc2-c2ccnc(NCCn3ccnc3)c2)cc1 [Example A-268]", "<", 100],
  ["Brc1ccc(-c2n[nH]cc2-c2ccncc2)cc1 [Example A-241]", "=", 338],
  ["Fc1ccc(-c2n[nH]cc2-c2ccnc(NCc3cccc(F)c3)c2)cc1 [Example A-254]", "=", 81],
  ["Cc1cnccc1-c1cn(C)nc1-c1ccc(F)cc1 [Example A-259]", "=", 170],
  ["Fc1cccc(-c2n[nH]cc2-c2ccncc2)c1 [Example A-227]", "=", 60]
]}

* * *

SUBJECT_OF_TEST: human p38 kinase alpha (Homo sapiens)
Construct: The coding region of the human p38a cDNA was obtained by PCR-amplification from RNA isolated from the human monocyte cell line THP.1; GST (N); made in house; host or cells: E. coli DH10B
Sequence (Q16539 whole entry): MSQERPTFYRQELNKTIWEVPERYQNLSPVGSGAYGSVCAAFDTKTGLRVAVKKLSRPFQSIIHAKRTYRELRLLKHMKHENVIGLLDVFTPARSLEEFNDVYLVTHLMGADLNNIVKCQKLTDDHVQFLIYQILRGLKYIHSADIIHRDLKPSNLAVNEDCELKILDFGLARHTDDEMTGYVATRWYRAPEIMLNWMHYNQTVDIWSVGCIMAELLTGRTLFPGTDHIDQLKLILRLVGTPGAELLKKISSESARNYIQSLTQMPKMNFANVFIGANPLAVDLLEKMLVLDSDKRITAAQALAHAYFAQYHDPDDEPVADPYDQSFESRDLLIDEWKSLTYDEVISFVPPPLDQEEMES
PROCEDURE_SUMMARY: p38 kinase in vitro assay, phosphorylation of biotinylated PHAS-I with gamma 32P-ATP
Format: biochemical
CONDITION: read-out: P38 alpha kinase IC50

{"columns": ["COMPOUND", "IC50 [nM]"],
 "data": [
  ["Cc1ccc(F)cc1S(=O)(=O)NCc1[nH]nc(-c2ccc(F)cc2)c1-c1ccncc1 [Example B-0232]", 48],
  ["CC(NS(=O)(=O)c1ccc(-c2ccccc2)cc1)c1[nH]nc(-c2ccc(F)cc2)c1-c1ccncc1 (centres unmarked) [Example B-0658]", 1140],
  ["O=C(NCc1[nH]nc(-c2ccc(F)cc2)c1-c1ccncc1)c1cc(F)ccc1F [Example B-0295]", 820],
  ["CNC(=O)NCc1[nH]nc(-c2ccc(F)cc2)c1-c1ccncc1 [Example B-0211]", 250],
  ["C[C@@H](NC(=O)c1ccc(C(F)(F)F)cc1F)c1[nH]nc(-c2ccc(F)cc2)c1-c1ccncc1 [Example B-0508]", 2000],
  ["N[C@H]1CC[C@@H](c2[nH]nc(-c3cccc(Cl)c3)c2-c2ccncc2)CC1 [Example C-105]", 33],
  ["NC(=O)NC(Cc1ccccc1)c1[nH]nc(-c2ccc(F)cc2)c1-c1ccncc1 (centres unmarked) [Example B-0724]", 60],
  ["C[C@@H](NS(=O)(=O)c1cn(C)cn1)c1[nH]nc(-c2ccc(F)cc2)c1-c1ccncc1 [Example B-0486]", 240]
]}
